Test: NCI Yeast Anticancer Drug Screen. Data for the mec2-1 strain (AID 157)
Settings: S. cerevisiae mec2-1 strain, at 50.0 µM (retest, dose inferred, filed as 5.0), stronger effect = higher value
Procedure: Growth inhibition of yeast strains with defined genetic alterations is measured as a screen for potential anti-cancer activity. Selected strains with alterations in DNA damage repair or cell cycle control were exposed to compounds and growth inhibition was measured relative to vehicle treated controls. The strain used in this assay is mec2-1
The panel holds about 79,000 compounds, 15% with a hit somewhere; the sample as a whole holds those more often.

- molecule: "CC(=O)OC(C)C(=O)NCC(C)O (centres undefined)"
  units: "%"
  growth inhibition: 0
- molecule: "O=C(O)/C=C\\C(=O)Nc1cccc2ccccc12"
  units: "%"
  growth inhibition: 30
- molecule: "CC(C)C(C)(C)c1ccc(O)cc1"
  units: "%"
  growth inhibition: 68
- molecule: "O=C(Cc1ccccc1)c1ccc(O)c(Cl)c1"
  units: "%"
  growth inhibition: 99
- molecule: "CCCCNc1ccc(Nc2ccccc2)cc1"
  units: "%"
  growth inhibition: 96
- molecule: "CCCCCCCCCCNC(=O)CI"
  units: "%"
  growth inhibition: 99
- molecule: "CC(O)C(=O)NC1CCCCC1 (centres undefined)"
  units: "%"
  growth inhibition: 1
- molecule: "N#CC(c1ccccc1)c1cccc2ccccc12 (centres undefined)"
  units: "%"
  growth inhibition: 35
- molecule: "Fc1ccc([I+]c2ccc(F)cc2)cc1"
  units: "%"
  growth inhibition: 43

* * *

Assay: NCI Yeast Anticancer Drug Screen. Data for the sgs1 mgt1 strain (AID 161);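 further: 0% = growth of cultures given vehicle only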
Conditions: S. cerevisiae sgs1 mgt1 strain, stronger effect = higher value; at 50.0 µM unless noted
The panel holds about 79,000 compounds, 15% with a hit somewhere; the sample as a whole holds those more often. Where a SMILES comes first, the peptide text is derived from it.
Quick rule for you: growth inhibition at 10% or higher means True, lower means False.

- compound: "O=C1OCC/C1=C/c1ccc(N=Nc2c(O)ccc3ccccc23)cc1"
  label: "True"
- compound: "CC1(CO)COC(C)(C)OC1"
  label: "False"
- compound: "O=C1NC(=O)c2c(O)cccc21"
  label: "True"
- compound: "Clc1cc(NCc2ccco2)ncn1"
  label: "False"
- compound: "O=C(O)CCN1C(=O)CSC1=S"
  label: "False"
- compound: "O=C(CCl)Oc1ccc(C(=O)O)cc1"
  label: "False"
- compound: "O=C(Nc1ccc(Cl)c(Cl)c1)N(CCO)Cc1ccccc1"
  label: "True"
- compound: "CN(C)C=Nc1ccc2c3c(cccc13)-c1ccccc1-2"
  label: "True"
- compound: "COc1cc(/C=N/NC(=O)c2ccccc2NC(=O)c2ccccc2)ccc1O"
  label: "True"
- compound: "CC1=C(c2ccccc2)OC(c2ccccc2)=C[P+]1(c1ccccc1)c1ccccc1"
  label: "True"
- compound: "NC1(CC(=O)O)CCN(Cc2ccccc2)CC1"
  label: "False"
- compound: "CNC(=O)CNC(=O)C(NC(=O)CNC(=O)C1CCCN1C(=O)C(C)NC(=O)C(NC(C)=O)C(C)C)C(C)C (configuration not stated) (Ac-VAPGVG-NHMe; configuration not given here)"
  label: "False"

* * *

Test: NCI Yeast Anticancer Drug Screen. Data for the mec2-1 strain (AID 157)
Conditions: S. cerevisiae mec2-1 strain, stronger effect = higher value; at 50.0 µM unless noted
Compounds without any hit were thinned out: in the full panel of roughly 79,000, 15% have a hit.
The molecules listed here are annotated with their growth inhibition.
measurement-label: growth inhibition (%)

- molecule: "NC(=O)c1cncn1C1OCC(O)C(O)C1O (stereo not given)"
  value-measured: 6.4
- molecule: "CC(=O)OC1CC(n2cc(F)c(=O)[nH]c2=O)OC1CO (stereo not given)"
  value-measured: 12.2
- molecule: "CCOC(=O)c1c2ccc(/C=C/C(=O)OC)ccc-2c(C(=O)OCC)c1N"
  value-measured: -24.4
- molecule: "CC(=O)Nc1ccc(-c2nnc(SCC(=O)Nc3cccc([N+](=O)[O-])c3)o2)cc1"
  value-measured: 5.15
- molecule: "CCOCCOC(=O)COc1ccccc1"
  value-measured: 16.4
- molecule: "CCOC(=O)/C(C)=C\\C=C(\\C)CCC=C(C)C"
  value-measured: -19.1
- molecule: "O=C(COc1cc(Cl)c(Cl)cc1Cl)Nc1ccc(Cl)cc1"
  value-measured: 19.9
- molecule: "Nn1nnc2ccccc21"
  value-measured: 24.8
- molecule: "CC12Nc3ccccc3N1C(=O)c1ccccc12 (stereo not given)"
  value-measured: 6.15
- molecule: "COC(=O)C(CCC1(C)OCCO1)C(C)=O (stereo not given)"
  value-measured: -0.85
- molecule: "NCC(O)C(O)C(O)CO (stereo not given)"
  value-measured: -6
- molecule: "S=c1nc[nH]c2c1ncn2Cc1ccco1"
  value-measured: -12.9
- molecule: "O=C(NC(NC(=O)c1ccccc1)c1ccccc1)c1ccccc1"
  value-measured: -9.2
- molecule: "O=C(Cc1ccccc1)NCCCN(CCCCN(CCCNC(=O)Cc1ccccc1)C(=O)OCc1ccccc1)C(=O)OCc1ccccc1"
  value-measured: -11.6
- molecule: "NC(=O)Cc1ccc2c3c(cccc13)CC2"
  value-measured: 5.45
- molecule: "Nc1ccccc1C1CCCCC1"
  value-measured: -13.6
- molecule: "FC(F)(F)C1CCCCC1[Si](C1CCCCC1C(F)(F)F)C1CCCCC1C(F)(F)F (stereo not given)"
  value-measured: -11.2
- molecule: "Cc1ccc(S(=O)(=O)C2CC(=O)N(c3ccc(F)c(Cl)c3)C2=O)cc1 (stereo not given)"
  value-measured: 4.55
- molecule: "COC(=O)/C=C(/Sc1nc(Cl)c(Cl)nc1N)C(=O)OC (tested in a mixture with another compound)"
  value-measured: -6.25
- molecule: "CNC(CCCCC1CCCCC1)C(=O)O (stereo not given)"
  value-measured: 3.4
- molecule: "O=c1[nH]c(-c2ccccc2)nc2nc3ccc([N+](=O)[O-])cc3[n+]([O-])c12"
  value-measured: -2
- molecule: "C#CC(=O)CCC"
  value-measured: -5.8
- molecule: "NCCCc1nonc1C(=O)O"
  value-measured: -39.4
- molecule: "COC(=O)NCC1OCC2OC(C)(C)OC12 (stereo not given)"
  value-measured: 3.25
- molecule: "O=C(Nc1ccc(Br)c2ccccc12)c1ccc2ccccc2c1O"
  value-measured: -2.1
